TARGET ENTITY: Beta-1 adrenergic receptor (Homo sapiens, UniProt P08588)
Sequence (P08588 whole entry): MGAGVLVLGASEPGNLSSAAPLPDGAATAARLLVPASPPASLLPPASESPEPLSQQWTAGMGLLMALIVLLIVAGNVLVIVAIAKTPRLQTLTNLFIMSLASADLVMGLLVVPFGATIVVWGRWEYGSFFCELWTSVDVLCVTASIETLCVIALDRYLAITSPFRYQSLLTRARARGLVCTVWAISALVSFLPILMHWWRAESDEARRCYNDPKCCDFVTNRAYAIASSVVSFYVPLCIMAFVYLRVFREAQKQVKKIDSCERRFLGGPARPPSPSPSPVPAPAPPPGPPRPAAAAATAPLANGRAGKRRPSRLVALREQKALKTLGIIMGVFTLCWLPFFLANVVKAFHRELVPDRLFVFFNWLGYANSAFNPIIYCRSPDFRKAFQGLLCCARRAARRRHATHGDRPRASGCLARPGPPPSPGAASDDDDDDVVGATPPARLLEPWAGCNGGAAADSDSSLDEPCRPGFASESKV
ASSAY INFO: Antagonist activity at human beta1 adrenergic receptor expressed in HEK293 cells co-expressing Galpha16 assessed as inhibition of isoproterenol-induced intercellular calcium mobilization pre-incubated for 10 mins before isoproterenol addition by Fluo-4AM dye-based fluorescence assay
STUDY CONDITIONS: read-out: EC50 (the source's name)
ENDPOINT LABEL: pIC50
A value of pIC50 is the negative decimal logarithm of a concentration given in moles per litre.

Example results:
CC(=O)NCc1cccc(OC[C@@H](O)CNCCc2ccc(NC(=O)c3ccccc3)cc2)c1 :: 4.00
CCc1ccccc1OC[C@@H](O)CNCCc1ccc(NC(=O)c2ccccc2)cc1 :: 6.91

Query block: Report pIC50 on Beta-1 adrenergic receptor (Homo sapiens, UniProt P08588) for this entry: CCc1ccccc1OC[C@@H](O)CNCCc1ccc(NC(=O)Cc2ccccc2)cc1
Result block: 7.43

----------
TARGET ENTITY: Beta-1 adrenergic receptor (Homo sapiens, UniProt P08588)
ASSAY INFO: Antagonist activity at human beta1 adrenergic receptor expressed in HEK293 cells co-expressing Galpha16 assessed as inhibition of isoproterenol-induced intercellular calcium mobilization pre-incubated for 10 mins before isoproterenol addition by Fluo-4AM dye-based fluorescence assay
STUDY CONDITIONS: read-out: EC50 (the source's name)
Overview of recorded IC50 for various molecules
Express it in µM; write the number only.

CCc1ccccc1OC[C@@H](O)CNCCc1ccc(NS(=O)(=O)c2ccccc2)cc1 :: 0.299

Query block: Read the entry O=C(Nc1ccc(CCNC[C@H](O)COc2cccc3[nH]ccc23)cc1)c1ccccc1 and write its reported IC50.
Result block: 0.036

----------
TARGET ENTITY: Beta-3 adrenergic receptor (Mus musculus)
ASSAY INFO: Antagonist activity at beta3 adrenergic receptor in mouse 3T3L1 cells assessed as inhibition of isoproterenol-induced lipolysis by measuring glycerol accumulation after 2 hrs
Type: functional, cell-based
Calls of active or inactive are those of the source. No cut-off for these calls is given here.
ENDPOINT LABEL: inhibition

Consider the worked cases shown below.
COC(=O)Nc1ccc(NC(=O)Nc2ccc(CCNC[C@H](O)COc3cccc4[nH]ccc34)cc2)cc1 :: Active
CC(=O)NCc1cccc(OC[C@@H](O)CNCCc2ccc(NS(=O)(=O)c3ccccc3)cc2)c1 :: Active
O=C(Nc1ccccc1)Nc1ccc(CCNC[C@H](O)COc2cccc3[nH]ccc23)cc1 :: Active
O=C(Nc1ccc(CCNC[C@H](O)COc2cccc3[nH]ccc23)cc1)NC1CCCCC1 :: Active
CC(C)NC(=O)Nc1ccc(CCNC[C@H](O)COc2cccc3[nH]ccc23)cc1 :: Active

Query block: Return value of inhibition for input O=C(NCCc1ccccc1)Nc1ccc(CCNC[C@H](O)COc2cccc3[nH]ccc23)cc1 , no commentary.
Result block: Active

Query block: For the compound O=C(Nc1ccc(F)cc1)Nc1ccc(CCNC[C@H](O)COc2cccc3[nH]ccc23)cc1 , give its reported inhibition.
Result block: Active

Query block: Return the recorded inhibition value; entry: COc1ccc(NC(=O)Nc2ccc(CCNC[C@H](O)COc3cccc4[nH]ccc34)cc2)cc1
Result block: Active

----------
TARGET ENTITY: UniProt P07550
Sequence (P07550 whole entry): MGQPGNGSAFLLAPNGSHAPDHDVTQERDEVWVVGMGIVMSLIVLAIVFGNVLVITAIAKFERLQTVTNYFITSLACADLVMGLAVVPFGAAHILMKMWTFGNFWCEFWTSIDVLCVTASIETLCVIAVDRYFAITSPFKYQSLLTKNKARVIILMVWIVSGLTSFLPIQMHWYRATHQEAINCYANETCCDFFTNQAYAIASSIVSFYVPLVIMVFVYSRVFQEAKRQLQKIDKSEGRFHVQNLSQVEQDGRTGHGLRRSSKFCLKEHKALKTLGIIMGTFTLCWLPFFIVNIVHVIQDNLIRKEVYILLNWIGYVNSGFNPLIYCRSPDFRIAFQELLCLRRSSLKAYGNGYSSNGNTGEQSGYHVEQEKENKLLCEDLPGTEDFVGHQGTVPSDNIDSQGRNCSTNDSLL
ASSAY INFO: Antagonist activity at human beta2 adrenergic receptor expressed in HEK293 cells co-expressing Galpha16 assessed as inhibition of isoproterenol-induced intercellular calcium mobilization pre-incubated for 10 mins before isoproterenol addition by Fluo-4AM dye-based fluorescence assay
STUDY CONDITIONS: read-out: EC50 (the source's name)
ENDPOINT LABEL: IC50 (nM)
Express your answer in nM, writing the number without its unit.

Solved cases below.
CCc1ccccc1OC[C@@H](O)CNCCc1ccc(NC(=O)Nc2ccccc2)cc1 :: 1420
CC(=O)NCc1cccc(OC[C@@H](O)CNCCc2ccc(NS(=O)(=O)Nc3ccccc3)cc2)c1 :: 8430
O=C(Nc1ccc(CCNC[C@H](O)COc2cccc3[nH]ccc23)cc1)c1ccccc1 :: 118
O=C(Nc1ccccc1)Nc1ccc(CCNC[C@H](O)COc2cccc3[nH]ccc23)cc1 :: 52.2
O=S(=O)(Nc1ccc(CCNC[C@H](O)COc2cccc3[nH]ccc23)cc1)c1ccccc1 :: 353
O=C(Cc1ccccc1)Nc1ccc(CCNC[C@H](O)COc2cccc3[nH]ccc23)cc1 :: 83.1
CCc1ccccc1OC[C@@H](O)CNCCc1ccc(NC(=O)Cc2ccccc2)cc1 :: 281
CC(=O)NCc1cccc(OC[C@@H](O)CNCCc2ccc(NC(=O)c3ccccc3)cc2)c1 :: 6060
CC(=O)NCc1cccc(OC[C@@H](O)CNCCc2ccc(NC(=O)Cc3ccccc3)cc2)c1 :: 15900
CCc1ccccc1OC[C@@H](O)CNCCc1ccc(NS(=O)(=O)c2ccccc2)cc1 :: 954

Query block: Note down IC50 recorded for CC(=O)NCc1cccc(OC[C@@H](O)CNCCc2ccc(NC(=O)Nc3ccccc3)cc2)c1
Result block: 9840

Query block: Kindly indicate its recorded IC50. Item: CCc1ccccc1OC[C@@H](O)CNCCc1ccc(NC(=O)c2ccccc2)cc1
Result block: 294

Values from ChEMBL document CHEMBL4229363
